Assay: Plasma stability, rat plasma
Type: in vitro ADME
Conditions: rat, plasma
MEASURED PROPERTY: remaining at 8 h, 42.1 μg/mL (%)
Value expressed in %; do not type the unit.

Below, 8 molecules whose answers are already recorded.
>>> experimental_value("CC(C)(C)OC(=O)N[C@@H](CCC(=O)O)C(=O)N[C@@H]1CC[C@@]2(C)[C@H](CC[C@@H]3[C@@H]4CCC[C@@]4(C)CC[C@@H]32)C1")
94
>>> experimental_value("C[C@@]12CCC[C@H]1[C@@H]1CC[C@@H]3C[C@H](NC(=O)CCCC(=O)O)CC[C@]3(C)[C@H]1CC2")
99
>>> experimental_value("C[C@@]12CCC[C@H]1[C@@H]1CC[C@@H]3C[C@H](NC(=O)C[C@H](N)C(=O)O)CC[C@]3(C)[C@H]1CC2")
100
>>> experimental_value("CC(C)(C)OC(=O)N[C@@H](CC(=O)N[C@@H]1CC[C@@]2(C)[C@H](CC[C@H]3[C@@H]4CCC[C@@]4(C)CC[C@@H]32)C1)C(=O)O")
99
>>> experimental_value("C[C@@]12CCC[C@H]1[C@@H]1CC[C@@H]3C[C@H](NC(=O)[C@@H](N)CCC(=O)O)CC[C@]3(C)[C@H]1CC2")
95
>>> experimental_value("C[C@@]12CCC[C@H]1[C@@H]1CC[C@@H]3C[C@H](NC(=O)[C@@H](N)CC(=O)O)CC[C@]3(C)[C@H]1CC2")
97
>>> experimental_value("C[C@@]12CCC[C@H]1[C@@H]1CC[C@@H]3C[C@H](NC(=O)CCC(=O)O)CC[C@]3(C)[C@H]1CC2")
100
>>> experimental_value("C[C@@]12CCC[C@H]1[C@@H]1CC[C@@H]3C[C@H](NC(=O)CC(=O)O)CC[C@]3(C)[C@H]1CC2")
100

Q. Requested read-out: remaining at 8 h, 42.1 μg/mL. Entry: "CC(C)(C)OC(=O)N[C@H](CCC(=O)N[C@@H]1CC[C@@]2(C)[C@H](CC[C@H]3[C@@H]4CCC[C@@]4(C)CC[C@@H]32)C1)C(=O)O"
A. 100

Q. Now consider "CC(C)(C)OC(=O)N[C@@H](CC(=O)O)C(=O)N[C@@H]1CC[C@@]2(C)[C@H](CC[C@H]3[C@@H]4CCC[C@@]4(C)CC[C@@H]32)C1" .
A. 93
